From: patent US20210032299A1

Assign hGcgR cAMP Rel EC50 to each entry below.
molecular target: human glucagon receptor (human, UniProt P47871 26-477); assay: cell-based or functional assay
Sequence (P47871 26-477): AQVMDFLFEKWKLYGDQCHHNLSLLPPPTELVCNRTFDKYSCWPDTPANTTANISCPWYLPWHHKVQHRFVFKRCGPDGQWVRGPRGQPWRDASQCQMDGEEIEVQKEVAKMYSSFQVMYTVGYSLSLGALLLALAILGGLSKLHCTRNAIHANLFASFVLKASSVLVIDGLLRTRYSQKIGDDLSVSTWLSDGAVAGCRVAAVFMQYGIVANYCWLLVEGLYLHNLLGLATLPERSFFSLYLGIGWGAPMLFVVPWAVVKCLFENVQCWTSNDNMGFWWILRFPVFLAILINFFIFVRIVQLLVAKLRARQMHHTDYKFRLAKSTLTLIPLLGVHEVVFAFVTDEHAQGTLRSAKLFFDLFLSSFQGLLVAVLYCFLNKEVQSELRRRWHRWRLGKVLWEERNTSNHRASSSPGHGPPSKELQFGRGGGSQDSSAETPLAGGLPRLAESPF

Consider the reported hGcgR cAMP Rel EC50 for these binders:
YXEGTFISDYSILLDKKHQXDFVNWLLAQGPSSGAPPPS (D-Ala2; K17((2-[2-(2-Amino-ethoxy)-ethoxy]-acetyl)2-(γ-Glu)-CO-(CH2)18-CO2H); Aib20; C-terminal amide) [Example 9]	> 5 µM
YXEGTFISDYSILLDKKAQXEFVQWLLAGGPSSGAPPPS (D-Ala2; K17((2-[2-(2-Amino-ethoxy)-ethoxy]-acetyl)2-(γ-Glu)-CO-(CH2)16-CO2H); Aib20; C-terminal amide) [Example 27]	> 5 µM
YXEGTFISDYSILLDKKAQXDFVNXLLAQGPSSGAPPPS (D-Ala2; K17((2-[2-(2-Amino-ethoxy)-ethoxy]-acetyl)2-(γ-Glu)-CO-(CH2)16-CO2H); Aib20; 4-Pal25; C-terminal amide) [Example 18]	> 5 µM
YXEGTFISDYSILLDKKAQXEFVNWLLAQGPSSGAPPPS (D-Ala2; K17((2-[2-(2-Amino-ethoxy)-ethoxy]-acetyl)2-(γ-Glu)-CO-(CH2)16-CO2H); Aib20; C-terminal amide) [Example 20]	> 5 µM
YXEGTXISDYSIXLDKKHQXDFVEXLLETGPSSGAPPPS (Aib2; Iva6; αMeL13; K17((2-[2-(2-Amino-ethoxy)-ethoxy]-acetyl)2-(γ-Glu)-CO-(CH2)18-CO2H); Aib20; 4-Pal25; C-terminal amide) [Example 75]	2.17 µM

Now let's try a different one.
[in] Consider the binder shown here: YXEGTFISDYSILLDKKAQXDFVNWLLEQGPSSGAPPPS (D-Ala2; K17((2-[2-(2-Amino-ethoxy)-ethoxy]-acetyl)2-(γ-Glu)-CO-(CH2)16-CO2H); Aib20; C-terminal amide) [Example 17] What is its recorded hGcgR cAMP Rel EC50?
[out] > 5 µM
